The reported numbers originate from ChEMBL document CHEMBL3621183.

assay: Aqueous solubility of the compound in Britton-Robinson buffer at pH 6.5 at 25 degC by shake flask method; type: physicochemical
Task for the reader: assign each of the following molecules its reported solubility thermodynamic.
Give just the numeric value; µg/mL need not be written.

// solubility thermodynamic value for `Cc1cc2cc(C#N)ccc2c(C)c1Nc1ccnc(Nc2ccc(C#N)cc2)n1` : 12.2

# solubility thermodynamic of `Cc1cn2cc(C#N)cc2c(C)c1Nc1ccnc(Nc2ccc(C#N)cc2)n1` = 8.2

// solubility thermodynamic value for `Cc1cc2cc(C#N)ccc2c(C)c1Nc1ncnc(Nc2ccc(C#N)cc2)n1` : 28.7

The molecule listed as `Cc1cn2cc(C#N)cc2c(C)c1Nc1ncnc(Nc2ccc(C#N)cc2)n1` has a reported solubility thermodynamic of 33.1
